Assay system: AtGDH (Aspergillus terreus NADP+-specific glutamate dehydrogenase) (Aspergillus terreus, UniProt T2D1F5)
Sequence (T2D1F5 1-460): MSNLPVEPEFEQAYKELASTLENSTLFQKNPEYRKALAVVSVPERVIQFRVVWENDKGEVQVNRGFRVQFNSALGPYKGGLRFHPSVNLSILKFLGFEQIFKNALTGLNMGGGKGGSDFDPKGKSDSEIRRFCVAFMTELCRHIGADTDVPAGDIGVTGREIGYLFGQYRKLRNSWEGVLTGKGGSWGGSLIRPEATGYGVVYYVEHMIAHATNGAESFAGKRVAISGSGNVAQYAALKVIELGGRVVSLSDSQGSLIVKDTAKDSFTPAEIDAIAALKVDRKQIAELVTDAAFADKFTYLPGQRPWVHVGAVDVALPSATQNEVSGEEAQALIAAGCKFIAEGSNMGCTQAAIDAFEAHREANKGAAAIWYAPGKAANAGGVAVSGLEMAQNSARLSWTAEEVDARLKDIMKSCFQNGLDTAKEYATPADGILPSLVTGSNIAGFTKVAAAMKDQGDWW
Test summary: NADPH oxidation at […] nm, reductive amination
Property: pKi; scope: individual compounds
A value of pKi is the negative decimal logarithm of a concentration given in moles per litre.

Solved entries (count: 2):
Lookup: Quick one: pKi of O=C(O)CCC(=O)O [succinate] ?
Found: 1.41

Lookup: Quick one: pKi of O=C(O)C(O)C(O)C(=O)O (centres unmarked) [tartrate] ?
Found: 1.29

More entries:
Lookup: Quick one: pKi of O=C(O)/C=C\C(=O)O [maleate] ?
Found: 1.44

Lookup: Quick one: pKi of O=C(O)/C=C/C(=O)O [fumarate] ?
Found: 1.63

Lookup: Quick one: pKi of O=C(O)CC(=O)O [malonate] ?
Found: 1.71

Taken from paper doi:10.1101/2021.09.28.462122v1.
